Reference source: paper PMC11249646

# experimentalTarget: CIB1 and αIIb interaction (CIB1-GST : F-αIIb peptide) (Homo sapiens)
# Construct: made in house; host or cells: BL-21 plus RIL cells (E. coli)
# Sequence (Q99828 1-191): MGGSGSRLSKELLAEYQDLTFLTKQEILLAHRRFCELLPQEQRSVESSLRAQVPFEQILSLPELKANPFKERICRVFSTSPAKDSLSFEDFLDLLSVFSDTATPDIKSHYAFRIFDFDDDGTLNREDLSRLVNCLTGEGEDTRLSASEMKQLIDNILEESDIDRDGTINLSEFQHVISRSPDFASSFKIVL
# protocolDetails: FP assay, 1536-well qHTS format (primary and confirmatory screen)
# Assay type: binding
# experimentalParameters: qHTS primary screen of LOPAC/NPACT libraries; negative sign = inhibitory curve
propertyName: Curve Class
Reply with just the number.

Cc1nc2sccn2c(=O)c1CCN1CCC(=C(c2ccc(F)cc2)c2ccc(F)cc2)CC1 :: -2.2

Item Nc1nccn2c(C3CCC(C(=O)O)CC3)nc(-c3cc4cccc(Cl)c4[nH]3)c12 (centres unmarked) has what recorded Curve Class?
-2.4

Further, for CN(C)CC1CCn2c(c(C3=C(c4cn(C)c5ccccc45)C(=O)NC3=O)c3ccccc32)C1.Cl (centres unmarked) ?
-2.4
